Where these numbers come from: paper PMC12473540

selectivity ratio at 48 h overview
Test: in vitro
Conditions: African green monkey (Vero) and human (Caco-2), Caco-2
Method: The antiproliferative activity of the crude extracts and compounds isolated from C. glabrum and C. nelsonii were tested against heterogenous human epithelial colorectal adenocarcinoma (Caco-2) and hormone receptor positive breast cancer (MCF-7) cells using the MTT assay. The Vero African green monkey kidney cells were used as the non-cancerous cell line for comparison. Doxorubicin was used as the positive control. […]
endpoint: selectivity ratio at 48 h

COc1cccc2c1C(=O)c1c(O)c3c(c(O)c1C2=O)C[C@@](O)(C(=O)CO)C[C@@H]3O[C@H]1C[C@H](N)[C@H](O)[C@H](C)O1 [Doxorubicin, reference compound] | 9.08
CC(C)C1=C(O)C(=O)C2=C(CC[C@H]3C(C)(C)CCC[C@]23C)C1=O [Compound 2, 12-hydroxy-8,12-abietadiene-11,14-dione] | < 0.15
CC[C@H](C=C[C@@H](C)[C@H]1CC[C@H]2[C@@H]3CC=C4C[C@@H](O)CC[C@]4(C)[C@H]3CC[C@]12C)C(C)C | < 0.69

---

assay: in vitro
CC50 at 48 h overview
endpoint: CC50 at 48 h (µg/mL)

CC(C)C1=C(O)C(=O)C2=C(CC[C@H]3C(C)(C)CCC[C@]23C)C1=O [Compound 2, 12-hydroxy-8,12-abietadiene-11,14-dione] | 30.7
CC[C@H](C=C[C@@H](C)[C@H]1CC[C@H]2[C@@H]3CC=C4C[C@@H](O)CC[C@]4(C)[C@H]3CC[C@]12C)C(C)C | 137
COc1ccc(/C=C\c2cc(OC)c(OC)c(OC)c2)c(O)c1O | 15.3

---

test: MTT cytotoxicity assay on Vero cells; conditions: African green monkey, Vero kidney cells (ATCC CCL-81), non-cancerous
endpoint: CC50 at 48 h (µg/mL)

COc1ccc(C=Cc2cc(OC)c(OC)c(OC)c2)c(OC2OC(CO)C(O)C(O)C2O)c1O (centres unmarked) | 83.8
COc1ccc(CCc2cc(OC)c(OC)c(OC)c2)c(OC2OC(CO)C(O)C(O)C2O)c1O (centres unmarked) | 83.8
